Normalization to wt ASGR1 Binding reference
Target: T1, human ASGR-1 mutant construct H203 (human, UniProt P07306 1-291)
T1 construct: Arg/Glu scanning: non-arginine residues were changed to arginine; Transiently expressed on CHO-S cells
T1 sequence: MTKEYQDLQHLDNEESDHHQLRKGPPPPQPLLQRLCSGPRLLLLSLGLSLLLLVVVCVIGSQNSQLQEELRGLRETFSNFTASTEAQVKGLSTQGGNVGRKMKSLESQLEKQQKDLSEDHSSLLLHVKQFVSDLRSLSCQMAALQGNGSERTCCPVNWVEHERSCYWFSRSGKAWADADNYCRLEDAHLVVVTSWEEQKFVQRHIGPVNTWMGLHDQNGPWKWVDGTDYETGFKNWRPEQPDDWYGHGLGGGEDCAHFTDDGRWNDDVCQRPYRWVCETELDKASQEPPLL
Test: FACS ratio: H203 normalized value / wt normalized value
Give the value as a plain number.

Solved entries (count: 2):
[[record]]
binder = "147E9 (antibody, V domains shown, mAb) VH: EVQLVESGGGLVQPGGSLRLSCAASGFTFSSYSMNWVRQAPGKGLEWVSSISGRNTTIYYADSVKGRFTISRDNAKNSLYLQMNSLRDEDTAVYYCSRDRGSCWGQGTLVTVSS VL: DIQMTQSPSSLSASVGDRVTITCRASQDINNYLAWFQQKPGKAPKSLIVAASSLQSGVPSKFSGSGSGTDFTLTISSLQPEDFATYYCQQYNSYPLTFGGGTKVEIK"
recorded_measurement = 0.858

[[record]]
binder = "60D2 (antibody, V domains shown, mAb) VH: EVQLVESGGGLVQPGGSLRLSCGASGFTFSSYSMNWVRQAPGKGLEWVSYISESSNIIYYTDSVKGRFTISRDNAMNSLYLQMNSLRDEDTAVYYCARADTPMVLYFYGMDVWGQGTTVTVSS VL: SYELTQPPSVSVSPGQTASITCSGNKLGDKYASWYQQRPGQSPVLVIYQDNKRPSGIPERFSGSNSGNTATLTISGTQTMDEADYYCQAWDNNTVVFGGGTKLTVL"
recorded_measurement = 9.95


API: the following record is the query input.
Ask: I am curious: what Normalization to wt ASGR1 Binding value has been reported for 218G4 (antibody, V domains shown, mAb) VH: QVQLVESGGGVVQPGRSLRLSCAASGFTFSSYGLHWVRQAPGKGLEWVAVIWYDGSNKYYADSVKGRFTISRDNSKNTLYLQMNSLRVEDTAVYYCANWYYYYYGMDVWGQGTTVTVSS VL: QSVLTQPPSVSAAPGQKVTISCSGSSSNIGNNYVSWYQQLPGTAPKLLLYDSNKRPSGIPARFSGSKSGTSATLGITGLQTGDEADYYCGTWDSSLNTVVFGGGTKLTVL ?
Result: 0.707
